target_desc: hDHFR (Homo sapiens (Human))
Sequence (P00374 whole entry): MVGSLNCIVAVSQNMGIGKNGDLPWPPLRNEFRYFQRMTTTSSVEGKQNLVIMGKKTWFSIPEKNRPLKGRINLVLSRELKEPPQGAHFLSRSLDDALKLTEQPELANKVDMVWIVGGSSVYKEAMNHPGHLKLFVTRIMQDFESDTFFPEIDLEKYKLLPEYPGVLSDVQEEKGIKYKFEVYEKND
measurement_notes: DHFR inhibition assay (diaphorase/resazurin coupled, fluorescence of resorufin), human DHFR
Format: biochemical
condition_summary: Table 11
Recorded hDHFR pIC50-DHFR primary assay, one value per entry.
Respond with the number and no other words.

Some entries whose results are on file:
Nc1ncc(N2CCN(c3cccc(-c4cnccn4)c3)CC2)c(N)n1; 5.88
Nc1ncc(N2CCN(c3cccc(-c4ncccn4)c3)CC2)c(N)n1; 5.89
Nc1ncc(N2CCN(c3cccc(-c4ccnnc4)c3)CC2)c(N)n1; 5.96
Nc1ncc(N2CCN(c3cccc(-c4cncnc4)c3)CC2)c(N)n1; 5.84

Can you share its hDHFR pIC50-DHFR primary assay? I mean this compound: COc1ncc(-c2cccc(N3CCN(c4cnc(N)nc4N)CC3)c2)cn1
5.92

Fill blank: measured hDHFR pIC50-DHFR primary assay of the compound Nc1ncc(N2CCN(c3ccc(Cl)cc3)CC2)c(N)n1 is ____.
5.96
